# credit: patent US10544154B2

Experiment: Polymorph screening of solid state drug substances
Type: physicochemical
Conditions: Acetone, dried solid
endpoint-name: XRPD results (Dried)

C=C1CC[C@@]2(O)C3Cc4ccc(OC(=O)CCCCCCCCCCCCCCCCCCC)c5c4[C@@]2(CCN3CC2CC2)[C@H]1O5 | Pattern A
CCCCCCCCCCCCCCCCOC(=O)Oc1ccc2c3c1O[C@H]1C(=O)CC[C@@]4(O)C(C2)N(CC2CC2)CC[C@]314 | Pattern A
